Where do the numbers come from? From patent US9850205B2.

Recorded AUC(0-t) by entry
Assay: In vivo pharmacokinetic comparison study in SD rats (gavage, LC-MS/MS plasma concentration)
Conditions: both sexes, SD (Sprague-Dawley), rat, plasma, po; SD rats, males and females together, gavage 10 mg/kg suspension; read-out: area under the curve AUC0-t
Give just the number in ng·h/mL; leave the unit off.

CCOc1cc([C@@H](CS(C)(=O)=O)N2C(=O)c3cccc(NC(C)=O)c3C2=O)ccc1OC [Form B]	3770

// query Input CCOc1cc(C(CS(C)(=O)=O)N2C(=O)c3cccc(NC(C)=O)c3C2=O)ccc1OC (single isomer, unassigned; (+)) [Form II] , output reported AUC(0-t).
// result 5530
